# Tested on: IMC-1 (IL-2 20 ng/mL);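 note: normalised to DMSO-only wells as negative and benzethonium chloride as positive control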
# Experiment summary: percent inhibition of viability; higher = more inhibition
# Condition: 72 h; 1 nM
Observed property: percent inhibition of viability
Don't forget the unit after the number, please.

{"Molecule": "Cc1c(C(=O)Nc2ccc(N3C[C@@H](C)O[C@@H](C)C3)nc2)cccc1-c1ccc(OC(F)(F)F)cc1 [Sonidegib] (max concentration tested 10000 nM)", "Observed property": "percent inhibition of viability", "Result": "-2.05%"}

Okay, next one:
Ask: Which percent inhibition of viability is reported for this molecule? CCC/C=C/C=C/C(=O)O[C@H]1/C(=C/C(=O)OC)C[C@H]2C[C@H]([C@@H](C)O)OC(=O)C[C@H](O)C[C@@H]3C[C@H](OC(C)=O)C(C)(C)[C@](O)(C[C@@H]4C/C(=C/C(=O)OC)C[C@H](/C=C/C(C)(C)[C@]1(O)O2)O4)O3 [Bryostatin 1] (max concentration tested 100 nM)
Reply: 75.6%
